Source of measurements: patent US20200079850A1

pKd reference
Target: T1, human LAG3 expressed on the cell surface (CHO-LAG3, 293T-LAG3 cells) (human, UniProt P18627 23-525)
T1 construct: Stably transfected CHO or HEK293T cells; also called Human LAG3 (CHO); Human LAG3 (293T)
T1 sequence: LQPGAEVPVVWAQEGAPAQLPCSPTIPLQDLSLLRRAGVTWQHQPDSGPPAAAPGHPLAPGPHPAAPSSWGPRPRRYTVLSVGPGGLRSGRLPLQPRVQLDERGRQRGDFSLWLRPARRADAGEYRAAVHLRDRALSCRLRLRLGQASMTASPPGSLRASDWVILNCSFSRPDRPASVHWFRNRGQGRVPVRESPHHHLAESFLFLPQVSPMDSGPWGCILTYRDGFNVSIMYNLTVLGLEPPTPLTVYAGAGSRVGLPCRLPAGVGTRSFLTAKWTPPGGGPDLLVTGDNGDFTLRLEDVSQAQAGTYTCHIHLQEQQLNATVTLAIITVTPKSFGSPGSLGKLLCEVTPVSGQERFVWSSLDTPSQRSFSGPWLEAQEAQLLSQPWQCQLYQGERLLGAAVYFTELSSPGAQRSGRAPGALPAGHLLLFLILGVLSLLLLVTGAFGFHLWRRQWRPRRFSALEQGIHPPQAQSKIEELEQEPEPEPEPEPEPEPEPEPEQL
Assay: flow cytometry, 293T cells expressing human LAG3
The read-out pKd is expressed as -log10 of concentration in moles per litre.

- h5G11-2 (scFv, V domains shown) VH: QVQLVQSGAEVKKPGSSVKVSCKASGFNIKDYYMHWVRQAPGQGLEWIAWIDPENGDTEYAPKFQGRVTITADESTSTAYMELSSLRSEDTAVYYCNAPDALDYWGQGTLVTVSS VL: DVVMTQSPLSLPVTLGQPASISCKSSQSLLDSDGKTYLNWFQQRPGQSPRRLIYLVSKLDSGVPDRFSGSGSGTDFTLKISRVEAEDVGVYYCWQGSHFPQTFGQGTKVEIK: 7.11
- SRP1627-A11 (scFv, V domains shown) VH: QVQLVQSGAEVKKPGSSVKVSCKASGFNINDYFMHWVRQAPGQGLEWIARIDPWNGDTEYAPKFQGRVTITADESTSTAYMELSSLRSEDTAVYYCGMSDALDYWGQGTLVTVSS VL: DVVMTQSPLSLPVTLGQPASISCKSSQSLLDSDGKTYLNWFQQRPGQSPRRLIYLVSKLDSGVPDRFSGSGSGTDFTLKISRVEAEDVGVYYCWHGINFPQTFGQGTKVEIK: 9.13

For reference, reported pKd for SRP1627-A02 (scFv, V domains shown) VH: QVQLVQSGAEVKKPGSSVKVSCKASGFNINDYFMHWVRQAPGQGLEWIARIDPWNGDTEYAPKFQGRVTITADESTSTAYMELSSLRSEDTAVYYCGMSDALDYWGQGTLVTVSS VL: DVVMTQSPLSLPVTLGQPASISCKSSQSLLDSDGKTYLNWFQQRPGQSPRRLIYLVSKLDSGVPDRFSGSGSGTDFTLKISRVEAEDVGVYYCSHGNPVPQTFGQGTKVEIK stands at 9.01
